subject of test: Histamine H3 receptor (Rattus norvegicus)
Sequence (Q9QYN8 whole entry): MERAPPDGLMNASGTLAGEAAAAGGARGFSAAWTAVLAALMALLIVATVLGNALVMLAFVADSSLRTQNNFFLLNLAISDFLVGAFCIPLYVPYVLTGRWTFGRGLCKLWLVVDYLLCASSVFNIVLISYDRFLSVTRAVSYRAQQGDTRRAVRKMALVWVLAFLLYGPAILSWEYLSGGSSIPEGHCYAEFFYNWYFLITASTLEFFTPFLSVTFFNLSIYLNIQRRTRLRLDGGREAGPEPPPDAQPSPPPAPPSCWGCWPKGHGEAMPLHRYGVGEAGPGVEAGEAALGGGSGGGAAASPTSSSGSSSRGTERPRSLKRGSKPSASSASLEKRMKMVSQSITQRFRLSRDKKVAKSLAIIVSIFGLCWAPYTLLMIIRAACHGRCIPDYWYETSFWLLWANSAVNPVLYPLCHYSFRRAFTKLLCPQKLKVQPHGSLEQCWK
assay info: Binding affinity at rat cortical Histamine H3 receptor
measured metric: pKi
Give only the number. pKi is defined as minus log10 of concentration in molar units.

molecule | pKi
N#Cc1ccc(-c2ccc(OCCCN3CC4CNCC4C3)cc2)cc1 (centres undefined) | 7.18

IN: Provide pKi, system Histamine H3 receptor (Rattus norvegicus), entry N#Cc1ccc(-c2ccc(OCCCN3CCOCC3)cc2)cc1
OUT: 7.60

IN: Provide pKi, system Histamine H3 receptor (Rattus norvegicus), entry CN(C)[C@@H]1CCN(CCCOc2ccc(-c3ccc(C#N)cc3)cc2)C1
OUT: 7.87

IN: Provide pKi, system Histamine H3 receptor (Rattus norvegicus), entry CCOC(=O)N1CCN(CCCOc2ccc(-c3c[nH]cn3)cc2)CC1
OUT: 6.06

###

subject of test: UniProtKB Q9Y5N1
Sequence (Q9Y5N1 whole entry): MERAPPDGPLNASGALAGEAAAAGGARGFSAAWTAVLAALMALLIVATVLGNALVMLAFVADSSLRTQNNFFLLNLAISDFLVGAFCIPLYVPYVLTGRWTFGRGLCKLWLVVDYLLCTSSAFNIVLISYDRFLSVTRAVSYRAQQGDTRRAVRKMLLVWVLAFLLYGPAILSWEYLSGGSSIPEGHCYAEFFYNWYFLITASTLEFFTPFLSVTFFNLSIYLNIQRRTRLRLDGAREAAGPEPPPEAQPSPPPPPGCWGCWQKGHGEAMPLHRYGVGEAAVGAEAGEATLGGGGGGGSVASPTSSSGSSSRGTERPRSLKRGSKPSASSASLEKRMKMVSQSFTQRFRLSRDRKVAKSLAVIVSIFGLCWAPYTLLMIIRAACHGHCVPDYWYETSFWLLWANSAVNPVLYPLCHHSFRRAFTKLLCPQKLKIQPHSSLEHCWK
assay info: Binding affinity at human cloned Histamine H3 receptor
Measured Ki, listed per entry.
Dear colleague, please return just the value in µM, with no unit written.

Known Ki results, listed for orientation:
compound | subject of test | Ki / µM
N#Cc1ccc(-c2ccc(OCCCN3CCCNCC3)cc2)cc1 | UniProtKB Q9Y5N1 | 0.00832
CC1CCCN(CCCOc2ccc(-c3ccc(C#N)cc3)cc2)C1 (stereo unspecified) | UniProtKB Q9Y5N1 | 0.0017
C[C@@H]1CC[C@@H](C)N1CCCOc1ccc(-c2ccc(C#N)cc2)cc1 | UniProtKB Q9Y5N1 | 0.000676

IN: Tell me its Ki given CN[C@@H]1CCN(CCCOc2ccc(-c3ccc(C#N)cc3)cc2)C1 as the entry.
OUT: 0.00851

IN: Tell me its Ki given N#Cc1ccc(-c2ccc(OCCCN3CCC(O)CC3)cc2)cc1 as the entry.
OUT: 0.123

IN: Tell me its Ki given N#Cc1ccc(-c2ccc(OCCCN3CCCC(O)C3)cc2)cc1 (stereo unspecified) as the entry.
OUT: 0.0302

IN: Tell me its Ki given CC1CCCCN1CCCOc1ccc(-c2ccc(C#N)cc2)cc1 (stereo unspecified) as the entry.
OUT: 0.00708

IN: Tell me its Ki given N#Cc1ccc(-c2ccc(OCCCN3CCOCC3)cc2)cc1 as the entry.
OUT: 0.0363

IN: Tell me its Ki given N#Cc1ccc(-c2ccc(OCCCN3CCNCC3)cc2)cc1 as the entry.
OUT: 0.117

IN: Tell me its Ki given CCOC(=O)N1CCN(CCCOc2ccc(-c3cc[nH]c3)cc2)CC1 as the entry.
OUT: 1

IN: Tell me its Ki given N#Cc1ccc(-c2ccc(OCCCN3CC4CNCC4C3)cc2)cc1 (stereo unspecified) as the entry.
OUT: 0.0151

IN: Tell me its Ki given CCOC(=O)N1CCN(CCCOc2ccc(-c3ccc(C#N)cc3)cc2)CC1 as the entry.
OUT: 1

IN: Tell me its Ki given CC1CCN(CCCOc2ccc(-c3ccc(C#N)cc3)cc2)CC1 as the entry.
OUT: 0.0138

###

subject of test: UniProt P25021
assay info: Binding affinity at human cortical Histamine 2 receptor
Measured pKi, listed per entry.
Give only the number. pKi is defined as minus log10 of concentration in molar units.

Known pKi results, listed for orientation:
compound structure | value observed
CCOC(=O)N1CCN(CCCOc2ccc(-c3cccc(C#N)c3)cc2)CC1 | 4.62
N#Cc1ccc(-c2ccc(OCCCN3CC[C@H](O)C3)cc2)cc1 | 4.72

Lab note: next molecule to report on.
IN: Tell me its pKi given CCOC(=O)N1CCN(CCCOc2ccc(-c3ccc([N+](=O)[O-])cc3)cc2)CC1 as the entry.
OUT: 5.08

###

Measured pKi, listed per entry.
subject of test: Histamine H1 receptor (Homo sapiens)
Sequence (P35367 whole entry): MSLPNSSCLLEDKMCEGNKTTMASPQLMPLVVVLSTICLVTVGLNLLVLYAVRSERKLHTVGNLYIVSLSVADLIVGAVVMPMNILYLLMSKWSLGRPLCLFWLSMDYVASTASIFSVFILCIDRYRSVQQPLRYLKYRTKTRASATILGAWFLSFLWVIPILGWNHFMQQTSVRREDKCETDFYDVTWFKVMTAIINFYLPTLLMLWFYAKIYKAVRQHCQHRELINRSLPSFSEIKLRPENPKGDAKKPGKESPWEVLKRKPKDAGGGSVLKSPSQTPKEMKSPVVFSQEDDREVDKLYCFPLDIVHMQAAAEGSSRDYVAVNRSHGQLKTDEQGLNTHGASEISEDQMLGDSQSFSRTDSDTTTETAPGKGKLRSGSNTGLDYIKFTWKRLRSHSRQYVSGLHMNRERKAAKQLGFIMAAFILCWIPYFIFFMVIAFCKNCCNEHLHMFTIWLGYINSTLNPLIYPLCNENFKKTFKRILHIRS
assay info: Binding affinity of human cortical histamine H1 receptor
Give only the number. pKi is defined as minus log10 of concentration in molar units.

compound | pKi
CCOC(=O)N1CCN(CCCOc2ccc(-c3ccc(OC(F)(F)F)cc3)cc2)CC1 | 6.36
CCOC(=O)N1CCN(CCCOc2ccc(-c3ccsc3)cc2)CC1 | 6.12
CCOC(=O)N1CCN(CCCOc2ccc(-c3ccc(Br)cc3)cc2)CC1 | 6.74
CCOC(=O)N1CCN(CCCOc2ccc(-c3ccncc3)cc2)CC1 | 5.43
N#Cc1ccc(-c2ccc(OCCCN3CCC(O)CC3)cc2)cc1 | 6.24

IN: Tell me its pKi given CN[C@@H]1CCN(CCCOc2ccc(-c3ccc(C#N)cc3)cc2)C1 as the entry.
OUT: 5.43

IN: Tell me its pKi given CC1CCN(CCCOc2ccc(-c3ccc(C#N)cc3)cc2)CC1 as the entry.
OUT: 6.37

###

subject of test: UniProt:Q9Y5N1
assay info: Binding affinity at human cloned Histamine 3 receptor
measured metric: Ki (nM)
Dear colleague, please return just the value in nM, with no unit written.

compound structure | value observed
N#Cc1ccc(-c2ccc(OCCCN3CC[C@@H](N)C3)cc2)cc1 | 6.17

IN: Tell me its Ki given N#Cc1ccc(-c2ccc(OCCCN3CCC(N)CC3)cc2)cc1 as the entry.
OUT: 200

IN: Tell me its Ki given N#Cc1ccc(-c2ccc(OCCCN3CC[C@H](O)C3)cc2)cc1 as the entry.
OUT: 19.5

IN: Tell me its Ki given N#Cc1ccc(-c2ccc(OCCCN3CCCC3)cc2)cc1 as the entry.
OUT: 7.24

IN: Tell me its Ki given N#Cc1ccc(-c2ccc(OCCCN3CC[C@@H](O)C3)cc2)cc1 as the entry.
OUT: 8.32

###

subject of test: Histamine H2 receptor (Homo sapiens, UniProt P25021)
Sequence (P25021 whole entry): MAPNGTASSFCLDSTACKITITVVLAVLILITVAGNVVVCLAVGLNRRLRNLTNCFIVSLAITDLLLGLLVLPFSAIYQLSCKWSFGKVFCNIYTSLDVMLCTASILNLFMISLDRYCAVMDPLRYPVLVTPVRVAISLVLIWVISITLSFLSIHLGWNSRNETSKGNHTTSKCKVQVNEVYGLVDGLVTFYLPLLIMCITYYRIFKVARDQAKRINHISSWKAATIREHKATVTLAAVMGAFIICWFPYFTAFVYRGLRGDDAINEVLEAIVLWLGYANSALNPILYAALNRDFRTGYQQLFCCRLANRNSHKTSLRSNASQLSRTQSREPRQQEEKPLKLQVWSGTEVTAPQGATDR
assay info: Binding affinity to the human cortical histamine H2 receptor
Measured Ki, listed per entry.
Dear colleague, please return just the value in µM, with no unit written.

Known Ki results, listed for orientation:
compound | Ki, µM
CCOC(=O)N1CCN(CCCOc2ccc(-c3cc[nH]c3)cc2)CC1 | 12.9
CCOC(=O)N1CCN(CCCOc2ccc(-c3ccc(OC)cc3)cc2)CC1 | 100
N#Cc1ccc(-c2ccc(OCCCN3CCCC(O)C3)cc2)cc1 (stereo unspecified) | 12.9
N#Cc1ccc(-c2ccc(OCCCN3CC4CNCC4C3)cc2)cc1 (stereo unspecified) | 12.3
N#Cc1ccc(-c2ccc(OCCCN3CCOCC3)cc2)cc1 | 38

IN: Tell me its Ki given CCOC(=O)N1CCN(CCCOc2ccc(-c3ccsc3)cc2)CC1 as the entry.
OUT: 97.7

###

subject of test: Histamine H2 receptor (Homo sapiens)
assay info: Binding affinity at human cortical Histamine 2 receptor
pKi: −log10 of the molar value.
Please mark Yes if the recorded pKi is equal to or greater than 5, and No if it falls below.

compound structure | subject of test | discrete label
N#Cc1ccc(-c2ccc(OCCCN3CC[C@@H](O)C3)cc2)cc1 | Histamine H2 receptor (Homo sapiens) | No

IN: Hello, I need to know if N#Cc1ccc(-c2ccc(OCCCN3CCCC3)cc2)cc1 has measured pKi not below 5. Thanks!
OUT: No

IN: Hello, I need to know if CCOC(=O)N1CCN(CCCOc2ccc(-c3ccc(Cl)cc3)cc2)CC1 has measured pKi not below 5. Thanks!
OUT: Yes

IN: Hello, I need to know if N#Cc1ccc(-c2ccc(OCCCN3CCC(N)CC3)cc2)cc1 has measured pKi not below 5. Thanks!
OUT: No

###

subject of test: Histamine H2 receptor (Homo sapiens)
assay info: Binding affinity to the human cortical histamine H2 receptor
measured metric: Ki

Known Ki results, listed for orientation:
compound | subject of test | Ki
CCOC(=O)N1CCN(CCCOc2ccc(-c3ccc(C#N)cc3C)cc2)CC1 | Histamine H2 receptor (Homo sapiens) | 3.98 µM
CCOC(=O)N1CCN(CCCOc2ccc(-c3cccs3)cc2)CC1 | Histamine H2 receptor (Homo sapiens) | 33.1 µM
N#Cc1ccc(-c2ccc(OCCCN3CCC(O)CC3)cc2)cc1 | Histamine H2 receptor (Homo sapiens) | 10 µM
CCOC(=O)N1CCN(CCCOc2ccc(-c3c[nH]cn3)cc2)CC1 | Histamine H2 receptor (Homo sapiens) | 69.2 µM
CC1CCCCN1CCCOc1ccc(-c2ccc(C#N)cc2)cc1 (configuration not stated) | Histamine H2 receptor (Homo sapiens) | 18.6 µM
N#Cc1ccc(-c2ccc(OCCCN3CCNCC3)cc2)cc1 | Histamine H2 receptor (Homo sapiens) | 22.9 µM
C[C@@]1(O)CCN(CCCOc2ccc(-c3ccc(C#N)cc3)cc2)C1 | Histamine H2 receptor (Homo sapiens) | 15.1 µM
CN[C@@H]1CCN(CCCOc2ccc(-c3ccc(C#N)cc3)cc2)C1 | Histamine H2 receptor (Homo sapiens) | 10 µM
CC1CCCC(C)N1CCCOc1ccc(-c2ccc(C#N)cc2)cc1 (configuration not stated) | Histamine H2 receptor (Homo sapiens) | 24 µM
CC1CCN(CCCOc2ccc(-c3ccc(C#N)cc3)cc2)CC1 | Histamine H2 receptor (Homo sapiens) | 9.12 µM

IN: Tell me its Ki given CCOC(=O)N1CCN(CCCOc2ccc(-c3ccc(OC(F)(F)F)cc3)cc2)CC1 as the entry.
OUT: 3.63 µM

IN: Tell me its Ki given CCOC(=O)N1CCN(CCCOc2ccc(-c3ccncc3)cc2)CC1 as the entry.
OUT: 57.5 µM
